- experiment_notes: P-glycoprotein substrates identified in KB-8-5-11 adenocarcinoma cell line, qHTS therapeutic library screen (AID 1346987); also: nearly all actives have a fitted effect of over 65% in size
- run_conditions: KB-8-5-11 (P-gp overexpressing) viability, CellTiter-Glo, 72 h; series mostly up to 44.5 µM
Records with an inconclusive call do not appear. Active and inactive are the calls of the source. Calls follow the shape of the dose curve; as a rule, active = well fitted inhibition curve with a large enough effect; inconclusive = small, poorly fitted or top-dose-only effect; inactive = flat fitted curve, though single readings scatter. Positions of bridges follow the written chain, without caps; N, C: chain ends. Non-standard residues stand in square brackets, D forms with d. Residues, ends and D or L forms follow the SMILES beside them. ξ: configuration not given here. *: point of attachment. Octanoyl(6-Me) = CCC(C)CCCCC(=O)*; ξThr(3R) = C[C@@H](O)C(N)C(=O)O; dDab = NCC[C@@H](N)C(=O)O; Dab = NCC[C@H](N)C(=O)O; Cbz = O=C(OCc1ccccc1)*
Possible outcomes: active, inactive

compound	assigned_label
CCN(CC)Cc1ccc2cc(COC(=O)Nc3ccc(C(=O)NO)cc3)ccc2c1	active
CCn1c(=O)c2c(nc(C=Cc3ccc(OC)c(OC)c3)n2C)n(CC)c1=O	inactive
C[C@@H]1[C@H](C)CC[C@]2(C(=O)O)CC[C@]3(C)C(=CC[C@@H]4[C@@]5(C)C[C@@H](O)[C@H](O)[C@@](C)(CO)[C@H]5CC[C@]43C)[C@@H]12	inactive
COc1cc(OC)c(C=CS(=O)(=O)Cc2ccc(OC)c(NCC(=O)O)c2)c(OC)c1	active
NC(=O)c1ncn([C@@H]2O[C@H](CO)[C@@H](O)[C@@H]2O)c1N	inactive
OCCN1C[C@H](O)[C@@H](O)[C@H](O)[C@@H]1CO	inactive
CC(=O)NC(CS)C(=O)O (stereo not drawn)	inactive
CCOC(=O)C=C[C@H](C[C@@H]1CCNC1=O)NC(=O)[C@@H](CC(=O)[C@@H](NC(=O)c1cc(C)on1)C(C)C)Cc1ccc(F)cc1	inactive
c1ccc(CNc2nc(NCc3ccccc3)c3ccccc3n2)cc1	active
Oc1cc2c(cc1O)C1c3ccc(O)c(O)c3OCC1(O)C2 (stereo not drawn)	inactive
CC(=O)OC[C@@H]1O[C@@H](n2ccc(=O)[nH]c2=O)[C@H](OC(C)=O)[C@H]1OC(C)=O	inactive
CCC(C)CCCCC(=O)N[C@@H](CCN)C(=O)NC(C(=O)N[C@H](CCN)C(=O)N[C@@H]1CCNC(=O)C([C@@H](C)O)NC(=O)[C@@H](CCN)NC(=O)[C@@H](CCN)NC(=O)[C@@H](CC(C)C)NC(=O)[C@H](Cc2ccccc2)NC(=O)[C@H](CCN)NC1=O)[C@@H](C)O (stereo partly drawn) ({Octanoyl(6-Me)}-[Dab][ξThr(3R)][dDab][dDab][Dab]F[dL][dDab][dDab][ξThr(3R)]; lactam 4-C)	inactive
CC(C)N1[N]C(=C2C=c3cc(O)ccc3=N2)c2c(N)ncnc21	active
COc1ccc(Nc2nccc(NCCO)n2)cc1	inactive
CC(C)(O)CC[C@@H](O)[C@](C)(O)[C@H]1CC[C@@]2(O)C3=CC(=O)[C@@H]4C[C@@H](O)[C@@H](O)C[C@]4(C)[C@@H]3CC[C@]12C	inactive
O=S(=O)(O)CCSSCCS(=O)(=O)O	inactive
COC1=C(OC)C(=O)C(CC=C(C)CCC=C(C)CCC=C(C)CCC=C(C)CCC=C(C)CCC=C(C)CCC=C(C)CCC=C(C)CCC=C(C)CCC=C(C)C)=C(C)C1=O	inactive
O=c1ccn([C@@H]2O[C@H](CO)[C@H](O)[C@@H]2F)c(=O)[nH]1	inactive
CCC(C=C[C@@H]1OC(=O)C=C[C@H]1C)=C[C@H](C)CC=CC(C)=C[C@@H](C)C(=O)[C@@H](C)[C@H](O)[C@@H](C)CC(C)=CC(=O)O	active
O=C(NCc1ccccc1)[C@H](Cc1ccccc1)NC(=O)[C@@H]1O[C@@H]1C(=O)NCCc1ccc(O)cc1	inactive
C[C@@H]1CC[C@@]2(OC1)OC1CC3C4CC=C5CC(O)CCC5(C)C4CCC3(C)C1[C@@H]2C (stereo partly drawn)	inactive
Cn1c(Nc2ccc(C(F)(F)F)cc2)nc2cc(Oc3ccnc(-c4ncc(C(F)(F)F)[nH]4)c3)ccc21	active
CC(C)C[C@@H](C=O)NC(=O)[C@H](CC(C)C)NC(=O)[C@H](CC(C)C)NC(=O)OCc1ccccc1 (Cbz-Leu-Leu-Leu-aldehyde)	active
CN(C)c1ccc2cc(C(=O)N[C@@H](CCCN=C(N)CCl)C(=O)NCc3ccccc3)ccc2c1	inactive
CC(=O)SCC(Cc1ccccc1)C(=O)NCC(=O)OCc1ccccc1 (stereo not drawn)	inactive
CCN(C(=O)c1c(O)c2c(Cl)cccc2n(C)c1=O)c1ccccc1	inactive
O=C(O)[C@H](CC(=O)N1C[C@@H]2CCCC[C@H]2C1)Cc1ccccc1	inactive
COc1cc2c(Nc3ccc(Cl)c(Cl)c3F)ncnc2cc1OCC1C[C@@H]2CN(C)C[C@H]2C1	active
N#Cc1ccc(COC[C@H]2O[C@@H](n3c(NCc4ccc(Cl)c(Cl)c4)nc4c(N)ncnc43)[C@@H](O)[C@@H]2O)cc1	inactive
c1coc(CNc2ncnc3nc[nH]c23)c1	inactive
COc1ccc(C=Cc2cc(OC)c(OC)c(OC)c2)cc1NC(=O)[C@H](N)CO	active
CCNC(=O)c1cc2c(-c3cc(OCCN4CCCC4)c(Cl)cc3Cl)nc(N)nc2s1	active
C[C@@H]1C(=O)O[C@H]2CC34[C@H]5C[C@@H](C(C)(C)C)C36[C@H](OC(=O)[C@@H]6O)O[C@@]4(C(=O)O5)[C@]21O (stereo partly drawn)	inactive
